# Target under test: CDK16_CycY (Homo sapiens, UniProt Q00536)
# Construct: purchased Reaction Biology
# Sequence (Q00536 whole entry): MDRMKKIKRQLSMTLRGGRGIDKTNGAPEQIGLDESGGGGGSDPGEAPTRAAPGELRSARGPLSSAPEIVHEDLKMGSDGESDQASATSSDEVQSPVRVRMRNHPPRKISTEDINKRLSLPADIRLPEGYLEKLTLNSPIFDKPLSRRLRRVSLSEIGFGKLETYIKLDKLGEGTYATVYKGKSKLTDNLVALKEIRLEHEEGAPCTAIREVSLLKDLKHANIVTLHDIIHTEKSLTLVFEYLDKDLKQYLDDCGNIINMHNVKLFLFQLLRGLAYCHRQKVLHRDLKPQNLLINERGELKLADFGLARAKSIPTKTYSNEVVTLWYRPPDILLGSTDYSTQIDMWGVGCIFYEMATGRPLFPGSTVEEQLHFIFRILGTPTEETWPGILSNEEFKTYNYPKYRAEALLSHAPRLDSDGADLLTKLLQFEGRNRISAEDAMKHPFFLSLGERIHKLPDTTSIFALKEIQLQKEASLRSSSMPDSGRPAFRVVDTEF
# Sequence (Q8ND76 whole entry partner): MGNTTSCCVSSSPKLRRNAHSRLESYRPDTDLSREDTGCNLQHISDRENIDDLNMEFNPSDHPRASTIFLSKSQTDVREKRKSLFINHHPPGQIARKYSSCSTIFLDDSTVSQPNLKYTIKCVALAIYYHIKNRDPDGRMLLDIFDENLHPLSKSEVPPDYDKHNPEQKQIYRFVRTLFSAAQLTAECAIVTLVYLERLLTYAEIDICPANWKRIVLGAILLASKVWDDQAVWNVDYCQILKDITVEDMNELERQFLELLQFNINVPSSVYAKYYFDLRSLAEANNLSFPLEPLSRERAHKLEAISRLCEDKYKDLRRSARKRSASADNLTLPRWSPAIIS
# Test protocol: Radiometric protein kinase assay (33PanQinase), CDK16_CycY
# Assay type: biochemical
# Study conditions: slope of the IC50 fit
Readout kind: Hill Slope
Lab note: jot the number down without any unit.

{"Molecule": "Cn1cc(-c2ccc(-c3cncc(Cl)c3N3CCC4(CCNC4=O)CC3)cc2)cn1", "Recorded number": -1.1}

Query block: Supply recorded Hill Slope for CN1CCN(C(=O)c2ccc3cc(CCNc4ncnc5ccc(C#N)cc45)ccc3c2)CC1 [Senexin B, reference compound] here.
Result block: -0.95

Query block: Supply recorded Hill Slope for Cn1ncc2cc(-c3cnc(N)c(Cl)c3N3CCC4(CCNC4=O)CC3)ccc21 here.
Result block: -0.3

Query block: Supply recorded Hill Slope for Cc1c(Br)c(Br)c2c3c1nc(N1CCNCC1)n3CCC2.Cl [SEL120-34A, reference compound] here.
Result block: -0.52

Query block: Supply recorded Hill Slope for Cc1n[nH]c2ncc(C(=O)N3CCC[C@H]3c3ccc(Cl)cc3)cc12 here.
Result block: -0.58

###

# Target under test: CDK18_CycY (Homo sapiens, UniProt Q07002)
# Sequence (Q07002 whole entry): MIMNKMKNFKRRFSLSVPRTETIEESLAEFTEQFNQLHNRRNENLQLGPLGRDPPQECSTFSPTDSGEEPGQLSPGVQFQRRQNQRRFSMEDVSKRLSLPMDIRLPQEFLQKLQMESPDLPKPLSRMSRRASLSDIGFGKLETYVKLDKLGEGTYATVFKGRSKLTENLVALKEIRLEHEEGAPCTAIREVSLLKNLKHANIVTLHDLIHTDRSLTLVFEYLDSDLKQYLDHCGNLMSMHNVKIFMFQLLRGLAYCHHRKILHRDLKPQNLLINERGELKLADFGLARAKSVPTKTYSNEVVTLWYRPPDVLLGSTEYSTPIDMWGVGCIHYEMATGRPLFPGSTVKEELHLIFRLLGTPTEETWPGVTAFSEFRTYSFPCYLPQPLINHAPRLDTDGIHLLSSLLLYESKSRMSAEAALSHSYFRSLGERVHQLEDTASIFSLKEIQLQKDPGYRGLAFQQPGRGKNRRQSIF
# Sequence (Q8ND76 whole entry partner): as the sequence (Q8ND76 whole entry partner) above
# Test protocol: Radiometric protein kinase assay (33PanQinase), CDK18_CycY
# Format: biochemical
# Study conditions: slope of the IC50 fit
Class MET: Hill Slope at least -0.8. Class NOT MET: Hill Slope below -0.8.

As a guide, the following entries are already answered.
{"Compound": "Cc1n[nH]c2ncc(C(=O)N3CCC[C@H]3c3ccc(Cl)cc3)cc12", "Category label": "NOT MET"}
{"Compound": "Cn1ncc2cc(-c3cnc(N)c(Cl)c3N3CCC4(CCNC4=O)CC3)ccc21", "Category label": "NOT MET"}
{"Compound": "Cn1cc(-c2ccc(-c3cncc(Cl)c3N3CCC4(CCNC4=O)CC3)cc2)cn1", "Category label": "MET"}

Query block: Determine whether this compound has Hill Slope no lower than -0.8: CN1CCN(C(=O)c2ccc3cc(CCNc4ncnc5ccc(C#N)cc45)ccc3c2)CC1 [Senexin B, reference compound]
Result block: MET

###

# Target under test: CDK6_CycD1 (Homo sapiens)
# Construct: purchased Reaction Biology
# Sequence (Q00534 whole entry): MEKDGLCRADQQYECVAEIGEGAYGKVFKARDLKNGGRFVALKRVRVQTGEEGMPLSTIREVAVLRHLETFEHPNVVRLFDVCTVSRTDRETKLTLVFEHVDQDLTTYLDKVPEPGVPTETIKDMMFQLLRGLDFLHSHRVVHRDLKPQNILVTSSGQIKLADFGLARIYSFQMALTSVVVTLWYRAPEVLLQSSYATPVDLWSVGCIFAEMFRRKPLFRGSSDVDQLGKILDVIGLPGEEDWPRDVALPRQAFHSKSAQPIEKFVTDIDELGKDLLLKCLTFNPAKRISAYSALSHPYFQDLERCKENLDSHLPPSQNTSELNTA
# Sequence (P24385 whole entry partner): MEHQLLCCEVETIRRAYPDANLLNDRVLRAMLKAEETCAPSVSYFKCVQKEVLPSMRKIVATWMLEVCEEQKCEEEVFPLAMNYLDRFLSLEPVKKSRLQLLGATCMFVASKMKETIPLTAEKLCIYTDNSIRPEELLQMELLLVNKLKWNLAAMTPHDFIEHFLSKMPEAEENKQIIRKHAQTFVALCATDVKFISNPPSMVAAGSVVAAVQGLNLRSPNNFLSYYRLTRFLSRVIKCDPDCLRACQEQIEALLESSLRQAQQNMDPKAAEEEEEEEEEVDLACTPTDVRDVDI
# Test protocol: Radiometric protein kinase assay (33PanQinase), CDK6_CycD1
# Format: biochemical
# Study conditions: slope of the IC50 fit
Readout kind: Hill Slope

{"Compound": "Cn1cc(-c2ccc(-c3cncc(Cl)c3N3CCC4(CCNC4=O)CC3)cc2)cn1", "Readout kind": "Hill Slope", "Result": -1.25}
{"Compound": "CN1CCN(C(=O)c2ccc3cc(CCNc4ncnc5ccc(C#N)cc45)ccc3c2)CC1 [Senexin B, reference compound]", "Readout kind": "Hill Slope", "Result": -0.17}
{"Compound": "Cc1n[nH]c2ncc(C(=O)N3CCC[C@H]3c3ccc(Cl)cc3)cc12", "Readout kind": "Hill Slope", "Result": -0.22}
{"Compound": "Cn1ncc2cc(-c3cnc(N)c(Cl)c3N3CCC4(CCNC4=O)CC3)ccc21", "Readout kind": "Hill Slope", "Result": -0.13}

// next item, Hill Slope requested
Query block: Provide measured Hill Slope on CDK6_CycD1 (Homo sapiens) for Cc1c(Br)c(Br)c2c3c1nc(N1CCNCC1)n3CCC2.Cl [SEL120-34A, reference compound] please.
Result block: -0.06
